Each recorded value in this set is attributed to paper PMC11488158.

target.or.system: ryanodine receptor 1 (RyR1) (Oryctolagus cuniculus, UniProt P11716)
Construct: full-length RyR1 purified from wild-type rabbit skeletal muscle; with FKBP12.6
Sequence (P11716 whole entry): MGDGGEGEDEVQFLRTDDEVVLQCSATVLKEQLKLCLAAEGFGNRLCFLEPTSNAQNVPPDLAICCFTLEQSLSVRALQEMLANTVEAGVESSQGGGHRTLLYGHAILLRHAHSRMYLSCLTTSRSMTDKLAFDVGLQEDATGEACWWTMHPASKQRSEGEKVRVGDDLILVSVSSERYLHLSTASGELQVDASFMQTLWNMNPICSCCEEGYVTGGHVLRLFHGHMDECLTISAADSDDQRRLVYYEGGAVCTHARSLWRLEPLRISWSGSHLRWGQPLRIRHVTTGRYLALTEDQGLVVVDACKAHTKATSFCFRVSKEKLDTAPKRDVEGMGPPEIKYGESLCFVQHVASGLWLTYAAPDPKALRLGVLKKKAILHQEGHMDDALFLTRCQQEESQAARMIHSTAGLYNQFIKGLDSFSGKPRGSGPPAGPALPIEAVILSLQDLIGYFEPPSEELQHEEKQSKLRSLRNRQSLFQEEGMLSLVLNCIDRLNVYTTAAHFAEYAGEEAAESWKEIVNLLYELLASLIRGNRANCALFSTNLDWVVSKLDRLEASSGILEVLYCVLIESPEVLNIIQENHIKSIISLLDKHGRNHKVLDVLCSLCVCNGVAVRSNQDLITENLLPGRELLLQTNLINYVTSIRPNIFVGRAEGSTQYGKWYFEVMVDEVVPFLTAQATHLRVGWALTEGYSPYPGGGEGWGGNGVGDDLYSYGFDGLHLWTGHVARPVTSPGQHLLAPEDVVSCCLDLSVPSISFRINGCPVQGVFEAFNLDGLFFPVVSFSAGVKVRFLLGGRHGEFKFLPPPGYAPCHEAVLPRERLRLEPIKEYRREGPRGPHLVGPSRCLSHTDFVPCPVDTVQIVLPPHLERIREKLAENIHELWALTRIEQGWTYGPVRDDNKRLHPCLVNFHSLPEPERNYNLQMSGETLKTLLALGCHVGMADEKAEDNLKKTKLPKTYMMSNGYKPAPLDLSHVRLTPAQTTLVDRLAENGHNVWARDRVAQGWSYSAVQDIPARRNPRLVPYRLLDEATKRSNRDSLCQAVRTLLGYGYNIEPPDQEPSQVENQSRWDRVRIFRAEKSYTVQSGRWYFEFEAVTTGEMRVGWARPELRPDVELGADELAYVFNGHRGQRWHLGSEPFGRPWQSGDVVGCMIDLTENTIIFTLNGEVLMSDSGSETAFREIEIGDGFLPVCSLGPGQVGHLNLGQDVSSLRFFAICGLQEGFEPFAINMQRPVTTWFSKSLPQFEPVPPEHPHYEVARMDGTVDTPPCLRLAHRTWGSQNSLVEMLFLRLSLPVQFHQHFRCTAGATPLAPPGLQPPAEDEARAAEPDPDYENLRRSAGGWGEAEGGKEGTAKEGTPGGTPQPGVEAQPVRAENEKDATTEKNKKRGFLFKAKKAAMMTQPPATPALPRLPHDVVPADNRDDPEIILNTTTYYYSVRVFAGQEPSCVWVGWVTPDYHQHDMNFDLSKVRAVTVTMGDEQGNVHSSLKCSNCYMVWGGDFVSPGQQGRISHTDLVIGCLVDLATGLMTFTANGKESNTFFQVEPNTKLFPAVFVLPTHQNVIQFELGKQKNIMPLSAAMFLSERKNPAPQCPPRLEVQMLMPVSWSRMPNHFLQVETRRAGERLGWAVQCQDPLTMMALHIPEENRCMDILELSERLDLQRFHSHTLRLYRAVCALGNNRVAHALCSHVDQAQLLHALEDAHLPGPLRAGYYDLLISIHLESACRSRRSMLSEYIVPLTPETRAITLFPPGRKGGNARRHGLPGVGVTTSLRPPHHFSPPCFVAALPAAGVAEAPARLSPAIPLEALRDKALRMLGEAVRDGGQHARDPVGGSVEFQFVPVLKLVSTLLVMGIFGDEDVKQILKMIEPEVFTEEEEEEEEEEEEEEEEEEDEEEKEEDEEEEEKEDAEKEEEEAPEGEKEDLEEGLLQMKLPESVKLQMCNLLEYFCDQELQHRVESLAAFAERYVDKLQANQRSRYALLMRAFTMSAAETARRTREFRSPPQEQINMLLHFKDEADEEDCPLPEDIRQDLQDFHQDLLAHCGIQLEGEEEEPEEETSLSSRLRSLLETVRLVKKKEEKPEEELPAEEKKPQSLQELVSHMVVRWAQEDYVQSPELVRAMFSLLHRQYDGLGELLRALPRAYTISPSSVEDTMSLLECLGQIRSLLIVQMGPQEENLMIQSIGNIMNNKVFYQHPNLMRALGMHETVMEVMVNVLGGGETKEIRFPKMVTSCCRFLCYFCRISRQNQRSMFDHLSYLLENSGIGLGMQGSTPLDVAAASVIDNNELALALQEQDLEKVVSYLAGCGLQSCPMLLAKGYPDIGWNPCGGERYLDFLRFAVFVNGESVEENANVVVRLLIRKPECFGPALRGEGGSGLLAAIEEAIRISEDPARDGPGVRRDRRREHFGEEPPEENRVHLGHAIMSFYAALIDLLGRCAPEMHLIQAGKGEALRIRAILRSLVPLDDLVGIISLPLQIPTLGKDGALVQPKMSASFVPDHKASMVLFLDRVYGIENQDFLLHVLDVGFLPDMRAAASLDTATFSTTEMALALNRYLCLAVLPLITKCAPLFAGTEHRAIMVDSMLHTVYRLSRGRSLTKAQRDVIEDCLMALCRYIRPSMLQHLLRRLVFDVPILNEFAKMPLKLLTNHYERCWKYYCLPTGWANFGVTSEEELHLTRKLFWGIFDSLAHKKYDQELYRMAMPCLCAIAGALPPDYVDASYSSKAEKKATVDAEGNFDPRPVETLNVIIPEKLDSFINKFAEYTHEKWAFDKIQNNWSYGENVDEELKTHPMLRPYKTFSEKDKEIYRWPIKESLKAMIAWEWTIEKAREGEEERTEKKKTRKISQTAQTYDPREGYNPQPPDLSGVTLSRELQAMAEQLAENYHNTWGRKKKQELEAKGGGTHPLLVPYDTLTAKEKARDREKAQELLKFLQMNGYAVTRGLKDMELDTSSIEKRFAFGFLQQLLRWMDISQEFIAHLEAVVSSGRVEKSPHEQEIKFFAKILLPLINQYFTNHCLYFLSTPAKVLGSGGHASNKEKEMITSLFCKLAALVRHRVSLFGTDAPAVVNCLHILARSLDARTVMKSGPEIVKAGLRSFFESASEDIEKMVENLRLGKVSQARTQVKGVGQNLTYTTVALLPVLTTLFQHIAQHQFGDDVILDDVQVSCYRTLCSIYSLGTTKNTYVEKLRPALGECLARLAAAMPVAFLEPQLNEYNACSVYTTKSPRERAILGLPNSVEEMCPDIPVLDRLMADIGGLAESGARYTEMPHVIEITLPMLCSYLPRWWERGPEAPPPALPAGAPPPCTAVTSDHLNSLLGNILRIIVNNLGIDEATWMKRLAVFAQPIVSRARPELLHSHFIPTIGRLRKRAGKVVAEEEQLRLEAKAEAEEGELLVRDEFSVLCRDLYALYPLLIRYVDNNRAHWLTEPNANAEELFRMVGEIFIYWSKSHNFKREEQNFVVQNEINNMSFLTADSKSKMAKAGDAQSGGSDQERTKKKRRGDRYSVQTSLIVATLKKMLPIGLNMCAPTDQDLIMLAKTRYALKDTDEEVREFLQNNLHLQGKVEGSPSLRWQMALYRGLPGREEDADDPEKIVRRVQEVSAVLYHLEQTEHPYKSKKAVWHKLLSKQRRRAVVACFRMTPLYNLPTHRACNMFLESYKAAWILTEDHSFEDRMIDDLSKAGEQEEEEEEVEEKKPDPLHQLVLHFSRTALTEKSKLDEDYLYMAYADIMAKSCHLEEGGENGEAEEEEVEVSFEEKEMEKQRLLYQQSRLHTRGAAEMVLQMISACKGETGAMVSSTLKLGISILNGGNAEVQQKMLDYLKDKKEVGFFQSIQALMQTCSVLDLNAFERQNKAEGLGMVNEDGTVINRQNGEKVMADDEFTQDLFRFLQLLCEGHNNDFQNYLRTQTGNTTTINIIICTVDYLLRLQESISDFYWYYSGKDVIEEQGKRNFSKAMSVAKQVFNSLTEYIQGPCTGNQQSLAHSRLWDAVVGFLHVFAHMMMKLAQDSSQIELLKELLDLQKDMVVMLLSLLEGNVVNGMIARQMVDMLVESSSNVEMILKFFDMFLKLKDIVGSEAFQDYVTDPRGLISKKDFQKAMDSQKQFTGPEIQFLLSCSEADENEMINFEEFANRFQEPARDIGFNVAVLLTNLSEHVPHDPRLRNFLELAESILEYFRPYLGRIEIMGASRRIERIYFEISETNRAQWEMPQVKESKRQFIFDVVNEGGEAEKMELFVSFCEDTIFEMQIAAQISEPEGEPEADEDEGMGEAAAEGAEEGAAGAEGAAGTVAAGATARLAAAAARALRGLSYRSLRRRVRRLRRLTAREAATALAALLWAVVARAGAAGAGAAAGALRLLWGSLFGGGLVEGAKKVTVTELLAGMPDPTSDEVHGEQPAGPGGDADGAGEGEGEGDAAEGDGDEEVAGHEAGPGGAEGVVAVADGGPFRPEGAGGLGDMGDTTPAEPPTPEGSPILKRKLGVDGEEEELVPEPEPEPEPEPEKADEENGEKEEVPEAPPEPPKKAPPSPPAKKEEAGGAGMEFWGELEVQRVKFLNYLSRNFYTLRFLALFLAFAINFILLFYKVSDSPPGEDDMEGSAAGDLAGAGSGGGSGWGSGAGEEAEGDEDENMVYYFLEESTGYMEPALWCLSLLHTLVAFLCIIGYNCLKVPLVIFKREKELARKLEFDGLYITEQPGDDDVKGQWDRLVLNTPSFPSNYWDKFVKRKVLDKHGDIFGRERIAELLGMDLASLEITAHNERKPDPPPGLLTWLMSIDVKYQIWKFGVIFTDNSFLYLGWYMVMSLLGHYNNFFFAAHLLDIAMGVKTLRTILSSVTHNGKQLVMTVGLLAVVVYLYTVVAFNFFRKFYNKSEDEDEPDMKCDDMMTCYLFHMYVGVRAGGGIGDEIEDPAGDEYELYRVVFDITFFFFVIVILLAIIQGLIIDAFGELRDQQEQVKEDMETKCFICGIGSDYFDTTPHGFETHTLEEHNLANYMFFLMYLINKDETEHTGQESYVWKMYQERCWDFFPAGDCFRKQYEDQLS
method.summary: protection from AziPm photolabelling ([…] propofol) in purified RyR1; the IC50 is from [3H]ryanodine binding in wild-type heavy SR vesicles at pCa […] (species not given, assumed)
observed.property: IC50 (µM)
// units = µM; emit number, no label

Form: molecule = CC(C)c1cccc(C(C)C)c1O [Propofol] ; IC50 = 5.8
